Cited source: patent US20230365662A1

Biological target: HRgpA-6H (Porphyromonas gingivalis) (UniProt P28784)
Assay: ELISA, FASEBA Fab on coated HRgpA-6H
For each entry below, report its Ratio OD(Variant)/OD(WT) value.
Just the number, please, no unit attached.

### Prompt Given the binder KB001 mouse Fab VL S30W (Fab, V domains shown) VH: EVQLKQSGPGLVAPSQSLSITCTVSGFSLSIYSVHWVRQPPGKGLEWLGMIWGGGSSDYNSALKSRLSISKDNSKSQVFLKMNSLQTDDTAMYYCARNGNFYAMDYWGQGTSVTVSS VL: QIVLTQSPAIMSASLGERVTMTCTASSSVWSSFLHWYQQKPGSSPQLWIYSTSNLASGVPARFSGSGSGTSYSLTISSMEAEDAATYYCHQYHHSPYIYTFGGGTKLEIK , what is its reported Ratio OD(Variant)/OD(WT)?
### Response 0.955

### Prompt Given the binder KB001 mouse Fab VL T24I (Fab, V domains shown) VH: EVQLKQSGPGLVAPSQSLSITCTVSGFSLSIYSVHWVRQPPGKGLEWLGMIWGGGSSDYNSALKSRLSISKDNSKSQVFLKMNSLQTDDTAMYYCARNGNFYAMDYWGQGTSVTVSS VL: QIVLTQSPAIMSASLGERVTMTCIASSSVSSSFLHWYQQKPGSSPQLWIYSTSNLASGVPARFSGSGSGTSYSLTISSMEAEDAATYYCHQYHHSPYIYTFGGGTKLEIK , what is its reported Ratio OD(Variant)/OD(WT)?
### Response 0.964

### Prompt Given the binder KB001 mouse Fab VL V29I (Fab, V domains shown) VH: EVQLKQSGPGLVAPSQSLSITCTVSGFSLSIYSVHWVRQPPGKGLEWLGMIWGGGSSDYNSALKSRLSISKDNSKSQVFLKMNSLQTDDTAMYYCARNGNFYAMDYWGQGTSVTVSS VL: QIVLTQSPAIMSASLGERVTMTCTASSSISSSFLHWYQQKPGSSPQLWIYSTSNLASGVPARFSGSGSGTSYSLTISSMEAEDAATYYCHQYHHSPYIYTFGGGTKLEIK , what is its reported Ratio OD(Variant)/OD(WT)?
### Response 0.99

### Prompt Given the binder KB001 mouse Fab VL S31D (Fab, V domains shown) VH: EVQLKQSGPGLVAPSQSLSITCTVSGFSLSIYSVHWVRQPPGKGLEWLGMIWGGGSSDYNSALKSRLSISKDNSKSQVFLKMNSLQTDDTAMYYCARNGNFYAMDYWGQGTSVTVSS VL: QIVLTQSPAIMSASLGERVTMTCTASSSVSDSFLHWYQQKPGSSPQLWIYSTSNLASGVPARFSGSGSGTSYSLTISSMEAEDAATYYCHQYHHSPYIYTFGGGTKLEIK , what is its reported Ratio OD(Variant)/OD(WT)?
### Response 0.902

### Prompt Given the binder KB001 mouse Fab VL V29L (Fab, V domains shown) VH: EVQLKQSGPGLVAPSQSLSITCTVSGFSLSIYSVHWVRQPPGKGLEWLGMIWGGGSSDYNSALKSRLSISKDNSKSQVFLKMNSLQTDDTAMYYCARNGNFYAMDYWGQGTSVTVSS VL: QIVLTQSPAIMSASLGERVTMTCTASSSLSSSFLHWYQQKPGSSPQLWIYSTSNLASGVPARFSGSGSGTSYSLTISSMEAEDAATYYCHQYHHSPYIYTFGGGTKLEIK , what is its reported Ratio OD(Variant)/OD(WT)?
### Response 0.871
